System: relapsed AML cells
Test: Drug sensitivity assay, 1,536-well, 3-day culture with individual approved drugs at 10 μM, viability by alamarBlue
Assay type: cell-based, human
Settings: number of relapsed AML cases out of 18 tested with >70% cell death; 10 μM, 3-day culture
PROPERTY MEASURED: #Cases >70% cell death
Keep the answer to the number alone.

Enquiry: Reported #Cases >70% cell death for relapsed AML cells, given `CN(C)CCCOc1nn(Cc2ccccc2)c2ccccc12` ?
Return: 4

Enquiry: What value of #Cases >70% cell death on relapsed AML cells does `NNC(=O)c1ccncc1` have?
Return: 1

Enquiry: Notebook entry, relapsed AML cells assay: #Cases >70% cell death of COc1cc2nccc(Oc3ccc(NC(=O)C4(C(=O)Nc5ccc(F)cc5)CC4)cc3)c2cc1OC [CABOZANTINIB] = ?
Return: 2

Enquiry: Requested read-out #Cases >70% cell death, target or system relapsed AML cells, entry `C[C@H]1C[C@@H]2[C@H]([C@@H](O)C[C@@]3(C)[C@H]2CC[C@]3(O)C(=O)CO)[C@@]2(C)C=CC(=O)C=C12`
Return: 1
